- experimental target: wild-type human cardiac sodium channel, hNav1.5 (Homo sapiens, UniProt Q14524)
- Sequence (Q14524 whole entry): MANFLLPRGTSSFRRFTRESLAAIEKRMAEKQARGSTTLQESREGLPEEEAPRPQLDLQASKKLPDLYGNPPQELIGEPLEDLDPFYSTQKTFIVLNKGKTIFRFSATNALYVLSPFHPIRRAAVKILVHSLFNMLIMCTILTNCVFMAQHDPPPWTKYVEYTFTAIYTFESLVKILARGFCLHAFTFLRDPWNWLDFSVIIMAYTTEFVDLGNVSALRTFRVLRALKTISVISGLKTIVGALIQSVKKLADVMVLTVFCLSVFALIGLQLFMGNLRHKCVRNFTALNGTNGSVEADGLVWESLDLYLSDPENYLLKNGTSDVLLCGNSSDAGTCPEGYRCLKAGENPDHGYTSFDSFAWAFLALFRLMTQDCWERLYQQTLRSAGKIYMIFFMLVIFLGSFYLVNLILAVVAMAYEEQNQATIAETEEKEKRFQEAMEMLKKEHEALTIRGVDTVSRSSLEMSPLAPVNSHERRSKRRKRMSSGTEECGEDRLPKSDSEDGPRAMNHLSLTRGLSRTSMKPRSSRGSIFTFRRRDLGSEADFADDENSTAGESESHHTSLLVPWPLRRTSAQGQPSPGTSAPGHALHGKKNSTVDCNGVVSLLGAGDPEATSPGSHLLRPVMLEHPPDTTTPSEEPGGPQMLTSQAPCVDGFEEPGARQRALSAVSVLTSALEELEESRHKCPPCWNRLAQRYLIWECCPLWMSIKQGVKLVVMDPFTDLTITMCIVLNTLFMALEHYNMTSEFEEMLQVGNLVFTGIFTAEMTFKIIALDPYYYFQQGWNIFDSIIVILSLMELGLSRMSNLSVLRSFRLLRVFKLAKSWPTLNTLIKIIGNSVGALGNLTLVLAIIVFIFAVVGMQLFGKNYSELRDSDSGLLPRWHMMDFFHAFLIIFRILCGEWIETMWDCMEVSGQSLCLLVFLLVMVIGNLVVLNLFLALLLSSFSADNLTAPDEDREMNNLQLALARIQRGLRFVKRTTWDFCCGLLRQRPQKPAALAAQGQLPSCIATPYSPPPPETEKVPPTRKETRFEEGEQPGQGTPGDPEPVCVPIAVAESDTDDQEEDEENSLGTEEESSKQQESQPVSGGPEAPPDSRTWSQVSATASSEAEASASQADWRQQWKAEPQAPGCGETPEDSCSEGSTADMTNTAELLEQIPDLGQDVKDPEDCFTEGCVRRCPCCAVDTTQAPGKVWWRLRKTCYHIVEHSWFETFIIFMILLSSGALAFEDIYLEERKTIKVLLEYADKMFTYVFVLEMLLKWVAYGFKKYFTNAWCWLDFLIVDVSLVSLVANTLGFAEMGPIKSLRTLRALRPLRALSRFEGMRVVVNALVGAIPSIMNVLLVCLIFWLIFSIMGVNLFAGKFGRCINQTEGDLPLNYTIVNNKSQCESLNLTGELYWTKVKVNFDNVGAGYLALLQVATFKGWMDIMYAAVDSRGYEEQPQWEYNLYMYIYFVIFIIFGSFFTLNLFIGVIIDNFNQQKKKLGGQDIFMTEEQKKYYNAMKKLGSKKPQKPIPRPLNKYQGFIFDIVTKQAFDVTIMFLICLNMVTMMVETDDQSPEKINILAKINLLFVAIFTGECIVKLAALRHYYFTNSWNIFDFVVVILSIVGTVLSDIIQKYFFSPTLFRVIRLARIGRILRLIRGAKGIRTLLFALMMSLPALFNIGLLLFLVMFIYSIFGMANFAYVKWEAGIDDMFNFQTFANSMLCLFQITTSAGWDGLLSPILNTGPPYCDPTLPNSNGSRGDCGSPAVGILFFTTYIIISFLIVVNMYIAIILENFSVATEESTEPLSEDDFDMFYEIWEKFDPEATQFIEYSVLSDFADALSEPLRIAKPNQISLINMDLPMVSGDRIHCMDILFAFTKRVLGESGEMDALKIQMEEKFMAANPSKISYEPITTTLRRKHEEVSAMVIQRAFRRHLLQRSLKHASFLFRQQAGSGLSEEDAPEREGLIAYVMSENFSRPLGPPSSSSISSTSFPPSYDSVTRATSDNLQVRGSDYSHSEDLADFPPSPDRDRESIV
- assay procedure: Late INa screening assay (late sodium current, PatchXpress whole cell patch clamp)
- Type: cell-based
- measurement parameters: compound at 10 μM; read-out: Late INa % blk

{"compound": "CC1=C(C(=O)OCc2ccccc2)C(c2ccccc2Br)c2cn[nH]c2N1 (centres unmarked)", "inhibition at 10 µM (%)": 21.2}
{"compound": "CCOC(=O)C1=C(C)Nc2nnnn2C1c1ccccc1OCc1ccc(C(=O)O)cc1 (centres unmarked)", "inhibition at 10 µM (%)": -2.2}
{"compound": "CCOC(=O)C1=C(C)Nc2nnnn2C1c1ccccc1-n1cncn1 (centres unmarked)", "inhibition at 10 µM (%)": 5.5}
{"compound": "CC1=C(C(=O)OCc2ccccc2)C(c2ccnc3ccccc23)n2nnnc2N1 (centres unmarked)", "inhibition at 10 µM (%)": 21.5}
{"compound": "CCOC(=O)C1=C(C)N(CC(=O)O)c2nnnn2C1c1cccc2ccccc12 (centres unmarked)", "inhibition at 10 µM (%)": 1.6}

====

Listing: inhibition at 10 µM of selected compounds
- experimental target: wild-type human cardiac sodium channel, hNav1.5 (Homo sapiens, UniProt Q14524)
- assay procedure: Late INa screening assay (late sodium current, PatchXpress whole cell patch clamp)
- Format: cell-based
- measurement parameters: compound at 10 μM; read-out: Late INa % blk

{"compound": "CCOC(=O)C1=C(C)Nc2nnnn2C1c1ccccc1-c1cccc(-c2nnn[nH]2)c1 (stereo not drawn)", "inhibition at 10 µM [%]": 0.5}
{"compound": "CCOC(=O)C1=C(C)NC(C)=C(C(=O)OCC)C1c1ccc(OC)cc1C#N", "inhibition at 10 µM [%]": 56.1}
{"compound": "CC1=C(C(=O)OCC2CC2)C(c2c(Br)sc3ccccc23)n2nnnc2N1 (stereo not drawn)", "inhibition at 10 µM [%]": 81}
{"compound": "CC1=C(C(=O)NCCc2ccccc2)C(c2cccc3ccccc23)n2nnnc2N1 (stereo not drawn)", "inhibition at 10 µM [%]": 23.6}
{"compound": "CCOC(=O)C1=C(C)OC(N)=C(C#N)C1c1ccco1 (stereo not drawn)", "inhibition at 10 µM [%]": -0.2}
{"compound": "CCOC(=O)C1=C(C)NC2=C(C(=O)CCC2)C1c1ccco1 (stereo not drawn)", "inhibition at 10 µM [%]": -5}
{"compound": "COc1ccc(C2C(C(=O)OCc3ccccc3)=C(C)Nc3nnnn32)c2ccccc12 (stereo not drawn)", "inhibition at 10 µM [%]": 23.5}
{"compound": "CC1=C(C(=O)OCc2ccccc2)C(c2ccccc2-c2cccc(NS(C)(=O)=O)c2)n2nnnc2N1 (stereo not drawn)", "inhibition at 10 µM [%]": 71.6}
{"compound": "CC1=C(C(=O)OC(C)C)C(c2c[nH]nc2-c2cccs2)C2=C(CC(C)(C)CC2=O)N1 (stereo not drawn)", "inhibition at 10 µM [%]": -0.2}
{"compound": "CCOC(=O)C1=C(C)Nc2nnnn2C1c1sccc1Br (stereo not drawn)", "inhibition at 10 µM [%]": 25.2}
{"compound": "CC1=C(C(=O)NCc2ccccc2)C(c2ccsc2)C2=C(CCCC2=O)N1 (stereo not drawn)", "inhibition at 10 µM [%]": 0.3}
{"compound": "CC1=C(C(=O)OC(C)C)C(c2cnn(-c3ccccc3C)c2C)C2=C(CC(C)(C)CC2=O)N1 (stereo not drawn)", "inhibition at 10 µM [%]": 6.8}
{"compound": "CC1=C(C(=O)OCc2ccccc2)C(c2ccc3ccccc3c2)c2cn[nH]c2N1 (stereo not drawn)", "inhibition at 10 µM [%]": -4.2}
{"compound": "CC1=C(C(=O)OCc2ccccc2)[C@@H](c2ccccc2-c2ccc(Cl)s2)n2nnnc2N1", "inhibition at 10 µM [%]": 61.5}
{"compound": "CC1=C(C(=O)OCc2ccccc2)C(c2ccc(S(C)(=O)=O)cc2)n2nnnc2N1 (stereo not drawn)", "inhibition at 10 µM [%]": 14.8}
{"compound": "CCOC(=O)C1=C(C)NC(C)=C(C(=O)OCC)C1c1ccoc1", "inhibition at 10 µM [%]": 25.7}
{"compound": "CC1=C(C(=O)OC(C)(C)C)C(c2ccc3ccccc3c2)n2nnnc2N1 (stereo not drawn)", "inhibition at 10 µM [%]": 26}
{"compound": "CCOC(=O)C1=C(C)Nc2nnnn2C1c1ccccc1Oc1ccc(S(N)(=O)=O)cc1 (stereo not drawn)", "inhibition at 10 µM [%]": 19}
{"compound": "CCOC(=O)C1=C(C)Nc2nccn2C1c1ccc2ccccc2c1 (stereo not drawn)", "inhibition at 10 µM [%]": 38.8}
{"compound": "CC1=C(C(=O)OCc2ccccc2)C(c2cccc3ccccc23)c2c(-c3ccc(C)cc3)n[nH]c2N1 (stereo not drawn)", "inhibition at 10 µM [%]": -2.6}
{"compound": "CC1=C(C(=O)OC(C)C)C(c2ccc(-c3ccc(Cl)cc3)o2)C(C(=O)OC(C)C)=C(C)N1", "inhibition at 10 µM [%]": -39}
{"compound": "CC1=C(C(=O)O[C@@H](C)c2ccccc2)C(c2c3ccccc3cc3ccccc23)n2nnnc2N1 (stereo partly drawn)", "inhibition at 10 µM [%]": 56.3}
{"compound": "CCOC(=O)C1=C(CC)Nc2nnnn2C1c1ccc2ccccc2c1 (stereo not drawn)", "inhibition at 10 µM [%]": 37.7}
{"compound": "CCCC1=C(C(=O)OCC)C(c2ccsc2)C2=C(CCCC2=O)N1 (stereo not drawn)", "inhibition at 10 µM [%]": 7.6}
{"compound": "COC(=O)C1=C(C)Nc2nnnn2C1c1cccs1 (stereo not drawn)", "inhibition at 10 µM [%]": 10.5}
{"compound": "CC1=C(C(=O)OC(C)(C)c2ccccc2)C(c2cccc3ccccc23)n2nnnc2N1 (stereo not drawn)", "inhibition at 10 µM [%]": 59}
{"compound": "CC1=C(C(=O)OCc2ccccc2)C(c2ccccc2-c2ccc(C(C)O)cc2)n2nnnc2N1 (stereo not drawn)", "inhibition at 10 µM [%]": 80.9}
{"compound": "CCOC(=O)C1=C(C)Nc2nnnn2C1c1ccccc1-c1cccs1 (stereo not drawn)", "inhibition at 10 µM [%]": 63}
{"compound": "CC1=C(C(=O)OCc2ccccc2)C(c2cccc3c2OCCO3)n2nnnc2N1 (stereo not drawn)", "inhibition at 10 µM [%]": 41}
{"compound": "CC1=C(C(=O)OCc2ccccc2)C(c2c3ccccc3cc3ccccc23)C2=C(CCCC2=O)N1 (stereo not drawn)", "inhibition at 10 µM [%]": 29.9}
{"compound": "CC1=C(C(=O)OCc2ccccc2)C(c2csc3ccccc23)n2nnnc2N1 (stereo not drawn)", "inhibition at 10 µM [%]": 76.5}
{"compound": "CCOC(=O)C1=C(C)Nc2nnnn2C1c1ccccc1Oc1cccc(C(=O)O)c1 (stereo not drawn)", "inhibition at 10 µM [%]": -4.9}
{"compound": "CSc1ccc(C2C(C(=O)OCc3ccccc3)=C(C)Nc3nnnn32)cc1 (stereo not drawn)", "inhibition at 10 µM [%]": 16.4}
{"compound": "CCOC(=O)C1=C(C)NC2=C(C(=O)CCC2)C1c1ccc(N(C)C)c2ccccc12 (stereo not drawn)", "inhibition at 10 µM [%]": 21.8}
{"compound": "CCOC(=O)C1=C(C)N(CC#N)c2nnnn2C1c1cccc2ccccc12 (stereo not drawn)", "inhibition at 10 µM [%]": 2.7}
{"compound": "CCOC(=O)C1=C(C)NC(C)=C(C(=O)OCC)C1c1cccs1", "inhibition at 10 µM [%]": 69.2}

====

- experimental target: UniProtKB Q14524
- assay procedure: Late INa screening assay (late sodium current, PatchXpress whole cell patch clamp)
- Type: cell-based
- measurement parameters: compound at 10 μM; read-out: Late INa % blk
observation type: inhibition at 10 µM (%)

{"compound": "CCOC(=O)c1c(C)nc(C)c(C(=O)OCC)c1-c1sc2ccccc2c1C", "unit string": "%", "test result": 38.9}
{"compound": "CC1=C(C(=O)OCc2ccccc2)C(c2ccccc2N2CCOCC2)n2nnnc2N1 (centres unmarked)", "unit string": "%", "test result": 36.7}
{"compound": "COc1cc(C#N)ccc1C1C(C(=O)OCc2ccccc2)=C(C)Nc2nnnn21 (centres unmarked)", "unit string": "%", "test result": 41.3}
{"compound": "CCCC1=C(C(=O)OCC)C(c2ccsc2)C2=C(CC(c3ccco3)CC2=O)N1 (centres unmarked)", "unit string": "%", "test result": 52.9}
{"compound": "COC(=O)C1=C(C)Nc2[nH]ncc2C1c1sc(Cl)nc1Cl (centres unmarked)", "unit string": "%", "test result": 19.9}

====

- experimental target: wild-type human cardiac sodium channel, hNav1.5 (Homo sapiens)
- assay procedure: Peak INa screening assay (tonic block TB and use-dependent block UDB of peak sodium current)
- Type: cell-based
- measurement parameters: tonic block; compound at 10 μM; read-out: Tonic Peak INa % blk
observation type: inhibition at 10 µM (%)

{"compound": "CCOC(=O)C1=C(C)Nc2nnnn2C1c1cccc(OCc2ccc(C(=O)OCC)cc2)c1 (centres unmarked) [PT-497]", "test result": 22.2}
{"compound": "CC1=C(C(=O)OCc2ccccc2)C(c2ccccc2N2CCN(S(C)(=O)=O)CC2)n2nnnc2N1 (centres unmarked) [PT-339]", "test result": 22.2}
{"compound": "CCOC(=O)[C@@H]1CCCN(c2cc(OC)ccc2C2C(C(=O)OCc3ccccc3)=C(C)Nc3[nH]ncc32)C1 (some centres unmarked) [PT-327]", "test result": 18.5}
{"compound": "CC1=C(C(=O)OCc2ccccc2)C(c2c(-c3ccc(C(=O)O)cc3)sc3ccccc23)n2nnnc2N1 (centres unmarked) [PT-294]", "test result": 24.4}
{"compound": "CC1=C(C(=O)O[C@@H](C)c2ccccc2)C(c2c3ccccc3cc3ccccc23)n2nnnc2N1 (some centres unmarked) [PT-055]", "test result": 7.6}
{"compound": "N#CC1=C(N)OC2=C(C(=O)CCC2)C1c1ccsc1 (centres unmarked) [PT-100]", "test result": 4}
{"compound": "CC1=C(C(=O)OCC(F)(F)F)C(c2cccc3ccccc23)n2nnnc2N1 (centres unmarked) [PT-014]", "test result": 9}
{"compound": "CC1=C(C(=O)OCc2ccccc2)C(c2ccc3ccccc3c2)c2c(C)n[nH]c2N1 (centres unmarked) [PT-325]", "test result": 19.9}
